Experiment: chemical genetic growth profiling, strain panel (AID 1159580);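 note: tested at 20 µM; growth read once vehicle control cultures reached saturation at 30 °C; 1 = growth at the plate median or of vehicle wells; lower values mean less growth of the strain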
Conditions: S. cerevisiae deletion strains, growth OD, locus YHR094C, strain hxt1, stronger effect = lower value
Out of some 5,500 compounds screened, about 2,000 (36%) were called active. Roughly 18% stayed inconclusive and do not appear here. The list shows a part of the results.
Field: label. Allowed values: 1 (normalized growth < 1) or -1 (normalized growth >= 1).

Enquiry: Consider O=c1cccc2ccc(O)c(O)c2c1O . Does its normalized growth lie strictly below 1?
Return: 1

Enquiry: Consider CC[C@@H](C(=O)C(C)[C@@H](O)[C@H](C)CCc1ccc(C)c(O)c1C(=O)O)C1OC(CC)(C2CC[C@](O)(CC)[C@H](C)O2)C[C@@H]1C (some centres not stated) . Does its normalized growth lie strictly below 1?
Return: -1

Enquiry: Consider C=C[C@@](C)(O)CCC1C(=C)CCC2[C@@](C)(CO)CCC[C@]12C (some centres not stated) . Does its normalized growth lie strictly below 1?
Return: -1
